measurement_description: solubility in water
Assay type: physicochemical
condition_parameters: found by applicants
reported_endpoint: solubility in water (g/100 mL)
Report only the number, with the unit g/100 mL understood.

Qu. What does the record list as solubility in water for CC(=O)NCCC(=O)O ?
Ans. 22
